Each item that follows carries a reported AIRE transcriptional activation functional score.
B1: library; numbered along this chain (parent)
chain: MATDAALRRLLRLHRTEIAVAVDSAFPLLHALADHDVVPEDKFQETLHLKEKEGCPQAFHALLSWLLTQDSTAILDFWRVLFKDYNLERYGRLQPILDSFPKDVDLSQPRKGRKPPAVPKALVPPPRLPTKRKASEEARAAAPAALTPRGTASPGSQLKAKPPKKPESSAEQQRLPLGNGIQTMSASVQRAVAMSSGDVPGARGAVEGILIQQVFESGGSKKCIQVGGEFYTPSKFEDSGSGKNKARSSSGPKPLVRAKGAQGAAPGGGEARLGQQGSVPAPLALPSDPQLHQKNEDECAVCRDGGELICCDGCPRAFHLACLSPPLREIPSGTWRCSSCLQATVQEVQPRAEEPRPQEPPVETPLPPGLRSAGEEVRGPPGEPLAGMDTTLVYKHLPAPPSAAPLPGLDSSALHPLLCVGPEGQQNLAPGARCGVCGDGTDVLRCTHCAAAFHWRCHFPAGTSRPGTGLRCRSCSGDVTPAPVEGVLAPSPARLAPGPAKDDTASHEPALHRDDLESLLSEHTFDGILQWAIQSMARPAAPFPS

Variants of: B1
Test: AIRE transcriptional activation functional score (insulin promoter-GFP; nonsense median 0, synonymous median 1) (normalised score); higher = higher AIRE activity (more reporter activation)
Conditions: with insulin promoter-GFP reporter in HEK293
Note: the reply should be a number with no unit written.

q: # AIRE transcriptional activation functional score lookup, item P544H
a: 0.559

Next:
q: May I ask what AIRE transcriptional activation functional score has been recorded for L146W ?
a: 1.42

q: // lookup AIRE transcriptional activation functional score for C322S
a: 1.41

q: Reported AIRE transcriptional activation functional score for R8F : what is it?
a: -0.127

q: Name the recorded AIRE transcriptional activation functional score for T130N .
a: 0.915

q: # input variant: D36N ; wanted: its AIRE transcriptional activation functional score
a: 1.07
